Give Affinity increase for every item shown.
# system_under_test: T1, AFP158/HLA-A*02:01 complex (human)
# T1 construct: flowed over the chip in SPR; also called AFP158 pro
# protocol_summary: SPR, KD ratio to AS170036 VL1VH1;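 note: crude scFv captured on a sensor chip, peptide–HLA complex passed over at several concentrations, association then buffer dissociation, KD derived from on- and off-rates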
Respond numerically; units are fold and should not be typed.

Answer with the recorded Affinity increase of LY34G (scFv, AS170036 VL1VH1 scFv mutein) scFv: QSALTQPRSVSGSPGQSVTISCAGTSSDVGSENGVSWYQQHPGKAPKLMIYQVNKRASGVPDRFSGSKSGNTASLTISGLQAEDEADYYCASYRSSDHNIVFGGGTKLTVLGGGGSGGGGSGGGGSEVQLVESGGGLVQPGGSLRLSCAASGFTFSSYAMSWVRQAPGKGLEWVSTINSGTGSPYYADSVKGRFTISRDNSKNTLYLQMNSLRAEDTAVYYCAKNFFDGSWFLGPPAMDYWGQGTLVTVSSHHHHHH only. 0.1

Answer with the recorded Affinity increase of LY93M (scFv, AS170036 VL1VH1 scFv mutein) scFv: QSALTQPRSVSGSPGQSVTISCAGTSSDVGSENYVSWYQQHPGKAPKLMIYQVNKRASGVPDRFSGSKSGNTASLTISGLQAEDEADYYCASMRSSDHNIVFGGGTKLTVLGGGGSGGGGSGGGGSEVQLVESGGGLVQPGGSLRLSCAASGFTFSSYAMSWVRQAPGKGLEWVSTINSGTGSPYYADSVKGRFTISRDNSKNTLYLQMNSLRAEDTAVYYCAKNFFDGSWFLGPPAMDYWGQGTLVTVSSHHHHHH only. 1.1

Answer with the recorded Affinity increase of LE32I (scFv, AS170036 VL1VH1 scFv mutein) scFv: QSALTQPRSVSGSPGQSVTISCAGTSSDVGSINYVSWYQQHPGKAPKLMIYQVNKRASGVPDRFSGSKSGNTASLTISGLQAEDEADYYCASYRSSDHNIVFGGGTKLTVLGGGGSGGGGSGGGGSEVQLVESGGGLVQPGGSLRLSCAASGFTFSSYAMSWVRQAPGKGLEWVSTINSGTGSPYYADSVKGRFTISRDNSKNTLYLQMNSLRAEDTAVYYCAKNFFDGSWFLGPPAMDYWGQGTLVTVSSHHHHHH only. 0.3

Answer with the recorded Affinity increase of LY93Q (scFv, AS170036 VL1VH1 scFv mutein) scFv: QSALTQPRSVSGSPGQSVTISCAGTSSDVGSENYVSWYQQHPGKAPKLMIYQVNKRASGVPDRFSGSKSGNTASLTISGLQAEDEADYYCASQRSSDHNIVFGGGTKLTVLGGGGSGGGGSGGGGSEVQLVESGGGLVQPGGSLRLSCAASGFTFSSYAMSWVRQAPGKGLEWVSTINSGTGSPYYADSVKGRFTISRDNSKNTLYLQMNSLRAEDTAVYYCAKNFFDGSWFLGPPAMDYWGQGTLVTVSSHHHHHH only. 0.6

All figures here come from patent US20240279318A1.
